Tested on: K562
Assay: NCI tumour cell line growth inhibition, 48 h
The source made the active and inactive calls. Cut-off read from the data, not from the text of the source: active = GI50 up to about 1.1 µM and inactive = higher.
Outcomes: active, inactive

[[record]]
molecule = "Cc1c(F)c(NC(=O)CN(C)C)c2c(=O)cc(-c3ccc(NC(=O)CN(C)C)c(F)c3)oc2c1F"
category_label = "inactive"

[[record]]
molecule = "COc1ccc(OC)c(NC(=O)C(=O)CC(=O)c2sc(-n3nc(-c4ccccc4)cc3-c3ccccc3)nc2C)c1"
category_label = "inactive"

[[record]]
molecule = "O=C(/C=C/c1ccccc1F)C(c1ccccc1)c1ccccc1"
category_label = "inactive"

[[record]]
molecule = "CC(C)C(/C=C/c1ccc(Br)cc1)=N\\NC(N)=O"
category_label = "inactive"

[[record]]
molecule = "Fc1cccc(F)c1C1SCc2nc3ccc(Cl)cc3n21 (configuration not stated)"
category_label = "inactive"

[[record]]
molecule = "O=S(=O)(O)C(c1ccccc1)C(O)c1ccccc1 (configuration not stated)"
category_label = "inactive"

[[record]]
molecule = "COc1cc(C2c3cc4c(cc3OC(Nc3ccc(C(=O)O)cc3)C2C)OCO4)cc(OC)c1OC (configuration not stated)"
category_label = "active"


---

Tested on: HCC 2998
Assay: NCI tumour cell line growth inhibition, 48 h
Activity calls are given as the source filed them. No stated cut-off is given here; in the data, active = GI50 up to about 1.1 µM and inactive = higher.
Measured GI50 accompanies every entry in the list below.
experimental-readout: GI50

[[record]]
molecule = "COC(=O)C1=C(N)C2=C(N)Oc3ccccc3C2CC1=C(C#N)C#N (stereo not drawn)"
experimental_readout = "GI50"
experimental_result = "17.9 µM (inactive)"

[[record]]
molecule = "Cc1ccc(Sc2cc([N+](=O)[O-])cc(Sc3ccc(C)cc3)c2Sc2ccc(C)cc2)cc1"
experimental_readout = "GI50"
experimental_result = "> 100 µM (inactive)"

[[record]]
molecule = "CCSC(SCC)c1cc2c(cc1Br)OCO2"
experimental_readout = "GI50"
experimental_result = "17.8 µM (inactive)"

[[record]]
molecule = "CCC1CN2CCc3cc(OC)c(OC)cc3C2CC1CC1c2cc(OC)c(OC)cc2CCN1C(=O)C1CCCN1C(=O)OCc1ccccc1 (stereo not drawn)"
experimental_readout = "GI50"
experimental_result = "16.3 µM (inactive)"

[[record]]
molecule = "OC1CSc2nc3ccccc3n2C1 (stereo not drawn)"
experimental_readout = "GI50"
experimental_result = "> 100 µM (inactive)"

[[record]]
molecule = "CC1=[N+](C)CCN1C"
experimental_readout = "GI50"
experimental_result = "> 100 µM (inactive)"

[[record]]
molecule = "C[C@@]12c3c4ccc(C=O)c3Oc3ccc(C=O)c(c31)Oc1c(C=O)ccc(c12)O4"
experimental_readout = "GI50"
experimental_result = "> 100 µM (inactive)"

[[record]]
molecule = "CC1(C)OB(O)OC1(C)C"
experimental_readout = "GI50"
experimental_result = "> 100 µM (inactive)"

[[record]]
molecule = "CN(C)CCCNc1cnc2cc3ccccc3cc2n1"
experimental_readout = "GI50"
experimental_result = "17.2 µM (inactive)"

[[record]]
molecule = "O=C1C(Cl)C(c2cccc(Br)c2)N1c1c(O)c(Cl)cc(Br)c1Cl (stereo not drawn)"
experimental_readout = "GI50"
experimental_result = "11.1 µM (inactive)"

[[record]]
molecule = "COc1ccc(/C(CC2OC(=O)c3ccccc32)=N\\NC(N)=O)cc1 (stereo not drawn)"
experimental_readout = "GI50"
experimental_result = "> 100 µM (inactive)"

[[record]]
molecule = "Cc1ncc([N+](=O)[O-])n1CCNC(=O)CCn1ccnc1[N+](=O)[O-]"
experimental_readout = "GI50"
experimental_result = "> 100 µM (inactive)"

[[record]]
molecule = "CC1(C)Cc2ccccc2C(C)(Cl)C(=O)N1 (stereo not drawn)"
experimental_readout = "GI50"
experimental_result = "> 10 µM (inactive)"

[[record]]
molecule = "Cc1ccc(S(=O)(=O)Oc2cc(N)c3c(n2)CCC3)cc1"
experimental_readout = "GI50"
experimental_result = "> 100 µM (inactive)"

[[record]]
molecule = "CC1CCCc2c(CC3CC(=O)NC(=O)C3)nc(N)nc21 (stereo not drawn)"
experimental_readout = "GI50"
experimental_result = "> 100 µM (inactive)"

[[record]]
molecule = "COc1cc(/C=N/N=C2NCCCN2)ccc1O"
experimental_readout = "GI50"
experimental_result = "> 100 µM (inactive)"

[[record]]
molecule = "CC1(C2COC(=O)C2)SCCCS1 (stereo not drawn)"
experimental_readout = "GI50"
experimental_result = "> 100 µM (inactive)"

[[record]]
molecule = "Nc1ccc(C(=O)NN2C(=O)C(Cl)C2c2ccccc2)cc1 (stereo not drawn)"
experimental_readout = "GI50"
experimental_result = "> 100 µM (inactive)"


src = ChEMBL document CHEMBL1201862
